TARGET_UNDER_TEST: T1, corticotropin releasing factor 2 receptor
T1 sequence (Q13324 whole entry, species assumed, looked up): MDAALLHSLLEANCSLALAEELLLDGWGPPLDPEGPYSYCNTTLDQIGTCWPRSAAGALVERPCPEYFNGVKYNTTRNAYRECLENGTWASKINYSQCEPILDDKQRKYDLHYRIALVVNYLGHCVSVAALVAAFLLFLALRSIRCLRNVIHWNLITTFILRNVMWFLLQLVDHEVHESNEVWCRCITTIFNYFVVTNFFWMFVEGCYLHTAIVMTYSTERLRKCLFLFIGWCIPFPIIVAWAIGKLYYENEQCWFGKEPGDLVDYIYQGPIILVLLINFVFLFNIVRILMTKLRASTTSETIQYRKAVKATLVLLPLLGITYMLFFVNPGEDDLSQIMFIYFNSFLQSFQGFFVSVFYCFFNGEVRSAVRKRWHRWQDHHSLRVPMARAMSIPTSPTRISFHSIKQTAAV
PROCEDURE_SUMMARY: cell-based or functional assay
Ends that are not written are not given here.

- BINDER: "ZGPPISIDLPYHLLRKMIEIEKQEKEKQQAANNALLLAT (C-terminal amide) [SEQ ID NO 315]"
  CRF2R Emax % (%): 81.7
- BINDER: "ZGPPISIDLPFQLLRKIIEIEKQEKEKQQAANNALLLATI (C-terminal amide) [SEQ ID NO 362]"
  CRF2R Emax % (%): 100
- BINDER: "ZGPPISIDLPQALLRKMIEIEKQEKEKQQAANNRLLLDTI (not fully specified; C-terminal amide) [SEQ ID NO 302]"
  CRF2R Emax % (%): 100
- BINDER: "ZGPPISIDLPFFLLRKVIEIEKQEKEKQQAANNALLLATI (C-terminal amide) [SEQ ID NO 317]"
  CRF2R Emax % (%): 88.3
- BINDER: "NDDPPISIDLPLHLLRNMIEMARIENEREQAGLNAKYLAEV-NH2 [SEQ ID NO 259]"
  CRF2R Emax % (%): 65
- BINDER: "ZGPPISIDLPYHLLRKVIEIEKQEKEKQQAANNALLLATI (C-terminal amide) [SEQ ID NO 313]"
  CRF2R Emax % (%): 95

All figures here come from patent US20030148956A1.
